experiment: Binding affinity to sigma site of Phencyclidine receptor by displacement of [3H]-(+)-SKF- 10,047
property-label: pKi
# pKi: negative log10 of molar concentration; output just the value

Sample c1ccc(C2(N3CCCCC3)CCCCC2)cc1 — what was its pKi?
6.28

Data origin: BindingDB's records for doi:10.1021/jm00403a014
